- ASSAY_OVERVIEW: NCI Yeast Anticancer Drug Screen. Data for the rad14 strain (AID 159);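 further: 0% = growth of vehicle-treated control cultures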
- CONDITION_CONTEXT: S. cerevisiae rad14 strain growth inhibition; at 3.7 µM; active compounds read high
This is part of a sample that, as a whole, favours compounds with a hit. Of some 79,000 tested, about 15% had one in any assay. The source made the active and inactive calls. No stated cut-off is given here; in the data, active means growth inhibition above about 70%; inactive means the rest.
OBSERVABLE: growth inhibition

Note to self: growth inhibition recorded for C=Cc1c(C)c(O)cc2c1-c1ccc(O)c(C)c1CC2 was -21% (inactive)

// growth inhibition lookup, molecule = OC(c1ccc(Br)cc1)(c1cccs1)C1CC1 (centres undefined) , result: 13% (inactive)

// growth inhibition value for CCCCCC(=O)C(C)(c1nc2n(c1O)/C(=N/C(=O)Nc1ccc(Cl)cc1)N=N2)c1nc2n(c1O)/C(=N/C(=O)Nc1ccc(Cl)cc1)N=N2 : 2% (inactive)

For this molecule ( N#C/C(=C1C=C/C(=N\O)C(Cl)=C\1)c1ccccc1 ), measured growth inhibition is 8% (inactive)

Documented growth inhibition of OC1C#CCSCC#C/C=C\1 (centres undefined) : 6% (inactive)

Item: c1cncc(C(Nc2cccc3cccnc23)Nc2cccc3cccnc23)c1 | growth inhibition: 9% (inactive)

The recorded growth inhibition for O=C1c2ccc(O)cc2C(=O)c2c(O)ccc(O)c21 is 27% (inactive)

Documented growth inhibition of Cc1ccc2c(/C=C/c3ccc(N(C)C)cc3)ccnc2c1C : -11% (inactive)

Kindly note the recorded growth inhibition for COc1ccc(/C=C2\S/C(=N/Nc3nc(-c4ccccc4)cs3)NC2=O)cc1OC , which is 45% (inactive)

Form: molecule = CCCCCCC(CCl)c1sc(-c2csc(CCNC(=O)OC(C)(C)C)n2)nc1C(=O)OC (centres undefined) ; growth inhibition = 1% (inactive)

// Nc1nc(Nc2ccccc2)nc(Nc2ccccc2)n1 : growth inhibition value = 1% (inactive)

Recorded result, S=c1[nH]nc(Cc2ccccc2)c(=S)[nH]1 , growth inhibition: 26% (inactive)

growth inhibition reported for this molecule Cc1nc2ccccc2c(=O)n1NC(=O)c1ccc(CS)cc1 : -23% (inactive)

Cc1nc2ccc(NCCN(C)C)c3c(=O)c4ccccc4n1c23 has a reported growth inhibition of 11% (inactive)

// growth inhibition value for O=C1OC(/C=C/c2ccccc2)Sc2ccccc21 (centres undefined) : 0% (inactive)

Per the records, this molecule ( Cc1[nH]nc(C(F)(F)F)c1N=NN(C)C ) has growth inhibition equal to 10% (inactive)

Per the record, COc1cc(C(C)C(C(=O)O)C(=O)C(=O)O)cc(OC)c1OC (centres undefined) has growth inhibition of -2% (inactive)

Summary for this molecule, O=S(=O)(CCC[C@H]1[C@@H](CCOCc2ccccc2)C2CCCN1O2)c1ccccc1 (some centres undefined) : growth inhibition is -3% (inactive)

get_value(item= CCOC(=O)C1=C(C)NC(C)=C(C(=O)OCC)C1c1cccc([N+](=O)[O-])c1 , readout=growth inhibition) returns -32% (inactive)

Sure, the documented growth inhibition for N=C(N)c1ccc(N=Nc2c(O)ccc3c2[nH]c2ccccc23)cc1 is 3% (inactive)

Reported growth inhibition of CCN(CC)c1cccc(Nc2nc3ccccc3s2)c1 : 7% (inactive)

Note to self: growth inhibition recorded for CN(C)CCC(=O)c1c[nH]c2ccccc12 was -29% (inactive)

Item: CC1C=CN(N(C)C)C2=C1C(=O)c1cnccc1C2=O (centres undefined) | growth inhibition: -31% (inactive)

CC(O)CN1C(=O)c2cccc3cc([N+](=O)[O-])cc(c23)C1=O (centres undefined) has a reported growth inhibition of 12% (inactive)
